I'd appreciate it if you could supply pEC50 values for the items below.
target: human orexin type 2 receptor (hOX2R) (Homo sapiens (Human), UniProt O43614); assay: Measurement of orexin type 2 receptor agonist activity (Experimental Example 2-1, FLIPR TETRA, intracellular Ca2+); format: cell-based; settings: CHO dhfr- cells expressing hOX2R, FLIPR TETRA, Fluo-4AM
Sequence (O43614 whole entry): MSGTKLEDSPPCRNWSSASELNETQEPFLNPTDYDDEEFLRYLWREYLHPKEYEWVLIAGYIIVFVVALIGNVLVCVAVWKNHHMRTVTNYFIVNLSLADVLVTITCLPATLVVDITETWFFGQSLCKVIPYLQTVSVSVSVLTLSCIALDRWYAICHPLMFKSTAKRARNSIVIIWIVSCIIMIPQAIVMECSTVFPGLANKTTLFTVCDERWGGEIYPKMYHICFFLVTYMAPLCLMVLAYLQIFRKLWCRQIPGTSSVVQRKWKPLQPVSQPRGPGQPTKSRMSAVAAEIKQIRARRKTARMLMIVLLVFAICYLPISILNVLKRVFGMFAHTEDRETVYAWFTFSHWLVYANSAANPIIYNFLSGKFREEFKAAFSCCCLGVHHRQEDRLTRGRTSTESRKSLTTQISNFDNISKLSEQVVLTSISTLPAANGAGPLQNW
Scale: pEC50 equals -log10([C]), with [C] in mol/L.

Incoming: Need pEC50 of CS(=O)(=O)N[C@H]1CCCN[C@H]1CO[C@H]1CC[C@@H](c2ccccc2C(F)F)CC1 [Example 320] , thanks.
Outgoing: 5.70

Incoming: Check CS(=O)(=O)N[C@H]1CCCN(C(=O)NCC#N)[C@H]1CO[C@H]1CC[C@@H](c2ccccc2)CC1 (relative stereo) [Example 179] too.
Outgoing: 9.51

Incoming: Check CS(=O)(=O)N[C@H]1CCCN(C(=O)C2CC2)[C@H]1COC1CCN(c2ccccc2F)CC1 [Example 246] too.
Outgoing: 6.14

Incoming: Check CS(=O)(=O)N[C@H]1CCCN(C(=O)C2CCC(F)(F)CC2)[C@H]1COC1CCN(c2ccccc2F)CC1 (relative stereo) [Example 238] too.
Outgoing: 5.68

Incoming: Check CS(=O)(=O)N[C@H]1CCCN(C(=O)OC2CC2)[C@H]1CO[C@H]1CC[C@@H](c2cccc(F)c2)CC1 [Example 272] too.
Outgoing: 7.55

Incoming: Check CCNC(=O)N1CCC[C@H](NS(C)(=O)=O)[C@@H]1CO[C@H]1C[C@H](c2ccccc2)C1 (relative stereo) [Example 130] too.
Outgoing: 6.34

Incoming: Check COC(=O)N1CCC[C@H](NS(C)(=O)=O)[C@@H]1CO[C@H]1CC[C@@]2(CC1)OCc1ccccc12 [Example 274] too.
Outgoing: 6.59
